# Lookup of reported growth inhibition keyed by entry
Method notes: NCI Yeast Anticancer Drug Screen. Data for the cln2 rad14 strain (AID 165);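 note: 0% = growth equal to vehicle treated cultures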
Experimental parameters: S. cerevisiae cln2 rad14 strain, at 50.0 µM, active compounds read high
Compounds without any hit were thinned out: in the full panel of roughly 79,000, 15% have a hit. Activity calls are given as the source filed them. Cut-off read from the data, not from the text of the source: active = growth inhibition above about 70%; inactive = the rest.

Compound: CN(C)CCCCN1c2ccccc2Sc2ccc(N=[N+]=[N-])cc21
growth inhibition: 89.5% (active)
//
Compound: COC1CCC(O)C(/C=C/[N+](=O)[O-])C1 (centres undefined)
growth inhibition: 89.8% (active)
//
Compound: CCN(CC)Cc1cc(Nc2c3ccccc3nc3c2[nH]c2ccccc23)cc(CN(CC)CC)c1O
growth inhibition: 66% (inactive)
//
Compound: O=C1N=C2SC=C(NC(=S)Nc3ccccc3)N2NC12c1ccccc1-c1ccccc12
growth inhibition: 57.9% (inactive)
//
Compound: CC(O)=NC(Cc1ccc2ccccc2c1)C(O)=NC(Cc1ccc(Cl)cc1)C(O)=NC(Cc1c[nH]c2ccccc12)C(O)=NC(CO)C(O)=NC(Cc1ccc(O)cc1)C(O)=NC(CCCN=C(N)N)C(O)=NC(CC(C)C)C(O)=NC(CCCN=C(N)N)C(=O)N1CCCC1C(O)=NC(C)C(=N)O (centres undefined)
growth inhibition: 12.2% (inactive)
//
Compound: COc1ccc(NC(=O)CC2SC(=Nc3ccccc3C)NC2=O)c([N+](=O)[O-])c1 (centres undefined)
growth inhibition: 32.2% (inactive)
//
Compound: CNC(=O)OCc1c(COC(=O)NC)c(-c2ccc(Cl)c(Cl)c2)n2c1SCC2
growth inhibition: 25.1% (inactive)
//
Compound: CCOC(=O)C#Cc1ccc([N+](=O)[O-])cc1
growth inhibition: 96.8% (active)
//
Compound: C/C=C/SC(=Nc1ccccc1)Nc1ccccc1
growth inhibition: 2.3% (inactive)
//
Compound: O=C(NCCCNCCN1C(=O)c2cccc3cc([N+](=O)[O-])cc(c23)C1=O)c1cc(-c2ccccc2)nc2ccccc12
growth inhibition: 93.6% (active)
//
Compound: CC1=C(SCc2ccccc2)C(=O)c2ccccc2C1=O
growth inhibition: 46.2% (inactive)
//
Compound: CC(=O)Nc1ccc2c(c1)-c1ccccc1C2=O
growth inhibition: -39.4% (inactive)
//
Compound: O=C(CC(=O)n1nc(-c2ccccc2)c(N=Nc2ccc(Cl)cc2)c1-c1ccccc1)Nc1cccc(Cl)c1
growth inhibition: 31.6% (inactive)
//
Compound: S=c1[nH]c2cc3ccccc3cc2[nH]1
growth inhibition: 43.6% (inactive)
//
Compound: COC(=O)/C=C(/CC(=O)OC)C(=O)OC
growth inhibition: 77.8% (active)
//
Compound: COc1cccc(/C=N/C(/N=C/c2cccc(OC)c2O)c2cccc(OC)c2O)c1O
growth inhibition: 45% (inactive)
//
Compound: O=C(NCCCl)Sc1ccc(Cl)cc1
growth inhibition: 42.8% (inactive)
//
Compound: COc1cc([C@@H]2c3cc4c(cc3[C@H](OC3OC5COC(C(C)C)OC5C(O)C3O)C3COC(=O)[C@@H]32)OCO4)cc(OC)c1O (some centres undefined)
growth inhibition: 13.6% (inactive)
//
Compound: C/C(=N\Nc1ccc([N+](=O)[O-])cc1[N+](=O)[O-])c1sc(-n2nc(-c3ccccc3)cc2-c2ccccc2)nc1C
growth inhibition: 61.6% (inactive)

====

Method notes: NCI Yeast Anticancer Drug Screen. Data for the rad50 strain (AID 155);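 note: 0% = growth of vehicle-only cultures of the same strain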
Experimental parameters: S. cerevisiae rad50 strain growth inhibition; at 5.0 µM (retest, dose inferred, filed as 0.5); active compounds read high
This is part of a sample that, as a whole, favours compounds with a hit. Of some 79,000 tested, about 15% had one in any assay.

Compound: CCOC(=O)C1=C(C)NC(C)=C(C(=O)OCCNC(=O)c2ccc(N=[N+]=[N-])cc2)C1c1ccccc1C(F)(F)F (stereo unspecified)
growth inhibition, %: 3

Compound: CC1=C(C(=O)NCc2ccccc2)C(c2ccccc2)C(C(=O)NCc2ccccc2)=C(C)N1
growth inhibition, %: 2

Compound: CCc1ccc2c(c1)N(CC(C)CN(C)C)c1ccccc1S2 (stereo unspecified)
growth inhibition, %: 2

Compound: N#CNC(N)=Nc1cc2ccccc2c2ccccc12
growth inhibition, %: 60

Compound: C=C(Cl)COC(=O)Nc1cccc(Cl)c1
growth inhibition, %: 0

Compound: COc1ccc(/C=C/c2sc3ccccc3[n+]2CCCCI)cc1OC
growth inhibition, %: -11

Compound: O=C(c1ccc([N+](=O)[O-])cc1)C1N=NCC1c1ccccc1 (stereo unspecified)
growth inhibition, %: 13

Compound: COC(=O)CC1CCc2c(ccc3ccccc23)C1(C)C(=O)OC (stereo unspecified)
growth inhibition, %: -5

Compound: CCOC(=N)c1ccc(O)c(OC)c1
growth inhibition, %: -2

Compound: CC(C)(C)[Si](C)(C)OCC1CCC(n2cnc3c(NC(=O)c4ccccc4)ncnc32)O1 (stereo unspecified)
growth inhibition, %: 0

Compound: Oc1ccc(SCc2ccc(NCc3ccccc3)cc2)cc1
growth inhibition, %: 22

====

Method notes: NCI Yeast Anticancer Drug Screen. Data for the mlh1 strain (AID 171);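 note: 0% = growth of vehicle-treated control cultures of the same strain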
Experimental parameters: S. cerevisiae mlh1 strain growth inhibition; at 1.2 µM; active compounds read high
Compounds without any hit were thinned out: in the full panel of roughly 79,000, 15% have a hit.
Measured metric: growth inhibition (%)

Chemical smiles: COc1cc([C@@H]2c3cc4c(cc3[C@@H](Nc3ccc(NC(=O)c5cc([N+](=O)[O-])cn5C)cc3)[C@H]3COC(=O)[C@H]23)OCO4)cc(OC)c1O
Unit symbol: %
Reported measurement: -15
//
Chemical smiles: Cc1ccc(Sc2ccccc2N)cc1
Unit symbol: %
Reported measurement: 5
//
Chemical smiles: NC(=O)c1c([N+](=O)[O-])cc(C(F)(F)F)cc1[N+](=O)[O-]
Unit symbol: %
Reported measurement: -2
//
Chemical smiles: CSc1nc(C)c(CCOC(C)=O)c(N=P(c2ccccc2)(c2ccccc2)c2ccccc2)n1
Unit symbol: %
Reported measurement: 12
//
Chemical smiles: COc1cc(/C=N/Nc2nnc3c4ccccc4c4ncccc4c3n2)cc(OC)c1OC
Unit symbol: %
Reported measurement: -1
//
Chemical smiles: CCc1nc2ccc(NCCN(C)C)c3c(=O)c4ccccc4n1c23
Unit symbol: %
Reported measurement: 37
//
Chemical smiles: CCCC(=O)Oc1ccc(/C=N/NC(N)=S)nc1
Unit symbol: %
Reported measurement: -9
//
Chemical smiles: CCCCCOC(=S)SC(=O)OCC
Unit symbol: %
Reported measurement: -1

====

Method notes: NCI Yeast Anticancer Drug Screen. Data for the mgt1 strain (AID 153)
Experimental parameters: S. cerevisiae mgt1 mutant growth inhibition; at 11.0 µM; active compounds read high
Compounds without any hit were thinned out: in the full panel of roughly 79,000, 15% have a hit.

Molecule: CCOC(=O)c1ccc(NC(=O)O/N=C(/Cl)C(C)C)cc1
growth inhibition, %: -5
//
Molecule: CCCC/C([O-])=C1/C(=O)N(c2ccccc2)N=C1C.CCCC/C([O-])=C1/C(=O)N(c2ccccc2)N=C1C.[Cu+2]
growth inhibition, %: 0
//
Molecule: CC(=O)Nc1ccc2c(c1)-c1ccccc1C2=O
growth inhibition, %: -5
//
Molecule: Cc1cc(=O)oc2c(C)c3occc(=O)c3cc12
growth inhibition, %: -11
//
Molecule: Nc1n[n+]([O-])c2ccc(Cl)cc2[n+]1[O-]
growth inhibition, %: 36
//
Molecule: Cc1cc(N(CCOS(C)(=O)=O)CCOS(C)(=O)=O)ccc1C=Nc1ccc(-c2nc(Cc3ccccc3)sc2C)cc1
growth inhibition, %: 55
//
Molecule: COC(=O)/C=C(/C(=O)OC)C(Cl)(Cl)Cl
growth inhibition, %: 5
//
Molecule: Cc1cc2c(cc1C)[n+]([O-])c(-c1nc3ccccc3s1)c(N)[n+]2[O-]
growth inhibition, %: 23
//
Molecule: Cc1ccc(N=Nc2ccc(O)c(=O)cc2)cc1
growth inhibition, %: 56
//
Molecule: CC1OC(O[C@H]2/C=C/C=C/C=C/C=C/C=C/C=C/C=C/[C@H](C)[C@@H](O)[C@@H](C)[C@H](C)OC(=O)C[C@H](O)C[C@H](O)CC[C@@H](O)[C@H](O)C[C@H](O)C[C@]3(O)C[C@H](O)[C@@H](C(=O)O)[C@H](C2)O3)C(O)C(N)C1O (stereo not given in full)
growth inhibition, %: 98
//
Molecule: Cc1cc(O)c(C(C)C)cc1C1(c2cc(C(C)C)c(O)cc2C)OC(=O)c2ccccc21
growth inhibition, %: -2
//
Molecule: CN(CCN(C)Cc1ccccc1)Cc1ccccc1
growth inhibition, %: 14
//
Molecule: CC(C)(C)C1=CC(=CC=C2C=CN(CCCCCCCCCCCO)C=C2)C=C(C(C)(C)C)C1=O
growth inhibition, %: 99
//
Molecule: CC(C)(C)[Si](C)(C)OCC1CCC(n2cnc3c(NC(=O)c4ccccc4)ncnc32)O1 (stereo not given)
growth inhibition, %: 0
//
Molecule: NC1=NNC2(C(N)=N1)c1ccccc1-c1ccccc12
growth inhibition, %: 3
